For each entry below, report its AUC(0-inf) value.
test: AUC (0 to infinity) in mouse at 20 mg/kg, iv administered as bolus dose by band-culture bioassay; conditions: in vivo
Quick note: give the figure in ng·h/mL, leave out the unit.

Consider the compound shown here: CCO/N=C(\C(=O)N[C@@H]1C(=O)N2C(C(=O)[O-])=C(/C=C/C[n+]3cccc4[nH]c(/C([O-])=N/C#N)cc43)CS[C@H]12)c1csc(N)n1.[Na+] What is its recorded AUC(0-inf)?
23600

How about CCO/N=C(\C(=O)N[C@@H]1C(=O)N2C(C(=O)[O-])=C(/C=C/C[n+]3ccc4c(/C([O-])=N\C#N)cccc4c3)CS[C@H]12)c1csc(N)n1.[Na+] ?
14200

Please give the result for CCO/N=C(\C(=O)N[C@@H]1C(=O)N2C(C(=O)[O-])=C(/C=C/C[n+]3cccc(/C([O-])=N/C#N)c3)CS[C@H]12)c1csc(N)n1.[Na+] too.
14100

Another compound to look at: CCO/N=C(\C(=O)N[C@@H]1C(=O)N2C(C(=O)[O-])=C(/C=C/C[n+]3ccc(-c4cc(/C([O-])=N/C#N)n(C)n4)cc3)CS[C@H]12)c1csc(N)n1.[Na+]
21300

Same lookup for CCO/N=C(\C(=O)N[C@@H]1C(=O)N2C(C(=O)[O-])=C(/C=C/C[n+]3ccc4sc(/C([O-])=N/C#N)nc4c3)CS[C@H]12)c1csc(N)n1.[Na+] , please.
23700

How about CCO/N=C(\C(=O)N[C@@H]1C(=O)N2C(C(=O)[O-])=C(/C=C/C[n+]3ccc(-c4c[nH]c(/C([O-])=N/C#N)c4C)cc3)CS[C@H]12)c1csc(N)n1.[Na+] ?
22000

Could you do the same for CCO/N=C(\C(=O)N[C@@H]1C(=O)N2C(C(=O)[O-])=C(C[n+]3ccc(-c4c[nH]c(C(=O)NC#N)c4)cc3)CS[C@H]12)c1nsc(N)n1 , please?
27300

For N#C/N=C(\[O-])c1cc(-c2cc[n+](CC3=C(C(=O)[O-])N4C(=O)[C@@H](NC(=O)/C(=N\OCCF)c5csc(N)n5)[C@H]4SC3)cc2)n[nH]1.[Na+] (stereo in doubt) then?
12700

Follow-up entry: CO/N=C(\C(=O)N[C@@H]1C(=O)N2C(C(=O)[O-])=C(C[n+]3ccc(-c4cc(/C([O-])=N/C#N)[nH]n4)cc3)CS[C@H]12)c1csc(N)n1.[Na+] (stereo in doubt)
18100

CCO/N=C(\C(=O)N[C@@H]1C(=O)N2C(C(=O)[O-])=C(C=CC[n+]3ccc(-c4cc(/C([O-])=N/C#N)[nH]n4)cc3)CS[C@H]12)c1csc(N)n1.[Na+] , same question.
17400

What do we get for CCO/N=C(\C(=O)N[C@@H]1C(=O)N2C(C(=O)[O-])=C(/C=C/C[n+]3cccc4cc(/C([O-])=N/C#N)[nH]c43)CS[C@H]12)c1csc(N)n1.[Na+] ?
22200
